From: ChEMBL document CHEMBL1149773

measurement-description: Growth inhibition of african green monkey Vero cells at 126.7 uM
Type: cell-based
stated-conditions: chlorocebus sabaeus, read-out: GI
measure-name: inhibition at 126.7 µM (%)
Your answer should be a plain number; it is taken to be in %.

Inquiry: Can you share its inhibition at 126.7 µM? I mean this molecule: `Clc1ccc(N2CCn3c(COc4ccc(Cl)cc4Cl)nnc32)cc1`
Reply text: 28

* * *

Measured viability at 100 µM, listed per entry.
measurement-description: Antiproliferative activity against human skin fibroblast assessed as cell viability at 100 uM by MTT assay
Format: cell-based
stated-conditions: human skin fibroblasts, read-out: Activity
Your answer should be a plain number; it is taken to be in %.

Solved cases (3 shown):
COc1ccc(N2CCn3cnnc32)cc1	89.3
COc1ccc(N2CCn3c(COc4ccc(Cl)cc4)nnc32)cc1	64.6
Cc1cc(Cl)ccc1OCc1nnc2n1CCN2c1ccc(Cl)cc1	71

Inquiry: Can you share its viability at 100 µM? I mean this molecule: `Clc1ccc(N2CCn3c(COc4ccc(Cl)cc4Cl)nnc32)cc1`
Reply text: 86.8

Inquiry: Please do the same for `Cc1cc(Cl)ccc1OCc1nnc2n1CCN2c1ccccc1` as well.
Reply text: 72.5

Inquiry: Please do the same for `c1ccc(OCc2nnc3n2CCN3c2ccccc2)cc1` as well.
Reply text: 83

Inquiry: Please do the same for `c1ccc(N2CCn3cnnc32)cc1` as well.
Reply text: 85.6

Inquiry: Please do the same for `Clc1ccc(OCc2nnc3n2CCN3c2ccc(Cl)cc2)cc1` as well.
Reply text: 16.2

Inquiry: Please do the same for `Cc1ccc(N2CCn3c(COc4ccc(Cl)cc4C)nnc32)cc1` as well.
Reply text: 62.1

Inquiry: Please do the same for `Cc1ccc(N2CCn3c(COc4ccc(Cl)cc4)nnc32)cc1` as well.
Reply text: 64.7

Inquiry: Please do the same for `Clc1ccc(N2CCn3cnnc32)cc1` as well.
Reply text: 90.7

* * *

measurement-description: Antiproliferative activity against human RPMI cells assessed as cell viability at 1 uM by MTT assay
Assay type: functional
stated-conditions: read-out: Activity
measure-name: viability at 1 µM (%)
Your answer should be a plain number; it is taken to be in %.

Solved cases (4 shown):
c1ccc(N2CCn3cnnc32)cc1	99.3
Clc1ccc(OCc2nnc3n2CCN3c2ccc(Cl)cc2)cc1	60.1
c1ccc(OCc2nnc3n2CCN3c2ccccc2)cc1	104
Clc1ccc(N2CCn3c(COc4ccc(Cl)cc4Cl)nnc32)cc1	98.4

Inquiry: Can you share its viability at 1 µM? I mean this molecule: `COc1ccc(N2CCn3c(COc4ccc(Cl)cc4)nnc32)cc1`
Reply text: 99.7

* * *

Measured viability at 50 µM, listed per entry.
measurement-description: Antiproliferative activity against human RPMI cells assessed as cell viability at 50 uM by MTT assay
Assay type: functional
stated-conditions: read-out: Activity
Your answer should be a plain number; it is taken to be in %.

Cc1cc(Cl)ccc1OCc1nnc2n1CCN2c1ccc(Cl)cc1	32.4
c1ccc(OCc2nnc3n2CCN3c2ccccc2)cc1	99
Clc1ccc(OCc2nnc3n2CCN3c2ccc(Cl)cc2)cc1	34.5

Inquiry: Can you share its viability at 50 µM? I mean this molecule: `Clc1ccc(N2CCn3cnnc32)cc1`
Reply text: 96.9

Inquiry: Please do the same for `Cc1ccc(N2CCn3c(COc4ccc(Cl)cc4C)nnc32)cc1` as well.
Reply text: 27.7

Inquiry: Please do the same for `c1ccc(N2CCn3cnnc32)cc1` as well.
Reply text: 102

Inquiry: Please do the same for `Clc1ccc(N2CCn3c(COc4ccc(Cl)cc4Cl)nnc32)cc1` as well.
Reply text: 24.4

* * *

measurement-description: Growth inhibition of african green monkey Vero cells at 146.7 uM
Type: cell-based
stated-conditions: chlorocebus sabaeus, read-out: GI
measure-name: inhibition at 146.7 µM (%)
Your answer should be a plain number; it is taken to be in %.

Inquiry: Can you share its inhibition at 146.7 µM? I mean this compound: `Cc1cc(Cl)ccc1OCc1nnc2n1CCN2c1ccccc1`
Reply text: 20

* * *

Measured viability at 100 µM, listed per entry.
measurement-description: Antiproliferative activity against human RPMI cells assessed as cell viability at 100 uM by MTT assay
Assay type: functional
stated-conditions: read-out: Activity
Your answer should be a plain number; it is taken to be in %.

Solved cases (3 shown):
COc1ccc(N2CCn3c(COc4ccc(Cl)cc4)nnc32)cc1	94.9
Cc1ccc(N2CCn3c(COc4ccc(Cl)cc4)nnc32)cc1	39.9
Cc1cc(Cl)ccc1OCc1nnc2n1CCN2c1ccccc1	108

Inquiry: Can you share its viability at 100 µM? I mean this compound: `Cc1ccc(N2CCn3c(COc4ccc(Cl)cc4C)nnc32)cc1`
Reply text: 25.4

Inquiry: Please do the same for `c1ccc(OCc2nnc3n2CCN3c2ccccc2)cc1` as well.
Reply text: 101

Inquiry: Please do the same for `COc1ccc(N2CCn3cnnc32)cc1` as well.
Reply text: 91.3

* * *

measurement-description: Growth inhibition of african green monkey Vero cells at 29.3 uM
Assay type: cell-based
stated-conditions: chlorocebus sabaeus, read-out: GI
measure-name: inhibition at 29.3 µM (%)
Your answer should be a plain number; it is taken to be in %.

Inquiry: Can you share its inhibition at 29.3 µM? I mean this compound: `Cc1cc(Cl)ccc1OCc1nnc2n1CCN2c1ccccc1`
Reply text: 20

* * *

measurement-description: Growth inhibition of human skin fibroblast at 29.3 uM
Format: cell-based
stated-conditions: human skin fibroblasts, read-out: GI
measure-name: inhibition at 29.3 µM (%)
Your answer should be a plain number; it is taken to be in %.

Inquiry: Can you share its inhibition at 29.3 µM? I mean this compound: `Cc1cc(Cl)ccc1OCc1nnc2n1CCN2c1ccccc1`
Reply text: 4

* * *

System: HeLa
measurement-description: Antiproliferative activity against human HeLa cells assessed as cell viability at 100 uM by MTT assay
Type: functional
stated-conditions: read-out: Activity
measure-name: viability at 100 µM (%)
Your answer should be a plain number; it is taken to be in %.

Inquiry: Can you share its viability at 100 µM? I mean this compound: `Clc1ccc(N2CCn3cnnc32)cc1`
Reply text: 68.4

* * *

measurement-description: Growth inhibition of human skin fibroblast at 146.7 uM
Assay type: cell-based
stated-conditions: human skin fibroblasts, read-out: GI
measure-name: inhibition at 146.7 µM (%)
Your answer should be a plain number; it is taken to be in %.

Inquiry: Can you share its inhibition at 146.7 µM? I mean this molecule: `Cc1cc(Cl)ccc1OCc1nnc2n1CCN2c1ccccc1`
Reply text: 8

* * *

measurement-description: Antiproliferative activity against human skin fibroblast assessed as cell viability at 1 uM by MTT assay
Type: cell-based
stated-conditions: human skin fibroblasts, read-out: Activity
Mark Met for viability at 1 µM under 90%, Not met if at or over.

Consider the worked cases shown below.
COc1ccc(N2CCn3c(COc4ccc(Cl)cc4)nnc32)cc1	Met
c1ccc(N2CCn3cnnc32)cc1	Not met

Inquiry: Quick check: does `Clc1ccc(N2CCn3cnnc32)cc1` have viability at 1 µM under 90%?
Reply text: Not met

Inquiry: Please do the same for `Cc1cc(Cl)ccc1OCc1nnc2n1CCN2c1ccc(Cl)cc1` as well.
Reply text: Met

Inquiry: Please do the same for `COc1ccc(N2CCn3cnnc32)cc1` as well.
Reply text: Not met

* * *

Measured logKw, listed per entry.
measurement-description: Lipophilicity, log kw in methanol aqueous system at pH 3.5
Type: physicochemical
Lab note: record the figure alone, no unit after it.

Solved cases (8 shown):
c1ccc(N2CCn3cnnc32)cc1	1.62
Cc1ccc(N2CCn3c(COc4ccc(Cl)cc4)nnc32)cc1	4.27
c1ccc(OCc2nnc3n2CCN3c2ccccc2)cc1	1.62
Cc1ccc(N2CCn3c(COc4ccc(Cl)cc4C)nnc32)cc1	1.58
Clc1ccc(N2CCn3c(COc4ccc(Cl)cc4Cl)nnc32)cc1	4.85
COc1ccc(N2CCn3cnnc32)cc1	1.87
COc1ccc(N2CCn3c(COc4ccc(Cl)cc4)nnc32)cc1	1.88
Cc1cc(Cl)ccc1OCc1nnc2n1CCN2c1ccc(Cl)cc1	4.61

Inquiry: Can you share its logKw? I mean this molecule: `Clc1ccc(OCc2nnc3n2CCN3c2ccc(Cl)cc2)cc1`
Reply text: 4.38

Inquiry: Please do the same for `Cc1cc(Cl)ccc1OCc1nnc2n1CCN2c1ccccc1` as well.
Reply text: 1.62

Inquiry: Please do the same for `Clc1ccc(OCc2nnc3n2CCN3c2ccc(Cl)c(Cl)c2)c(Cl)c1` as well.
Reply text: 6

Inquiry: Please do the same for `Clc1ccc(N2CCn3cnnc32)cc1` as well.
Reply text: 2.19

Inquiry: Please do the same for `Clc1ccc(N2CCn3cnnc32)cc1Cl` as well.
Reply text: 2.92

* * *

measurement-description: Growth inhibition of human skin fibroblast at 126.7 uM
Assay type: cell-based
stated-conditions: human skin fibroblasts, read-out: GI
measure-name: inhibition at 126.7 µM (%)
Your answer should be a plain number; it is taken to be in %.

Inquiry: Can you share its inhibition at 126.7 µM? I mean this molecule: `Clc1ccc(N2CCn3c(COc4ccc(Cl)cc4Cl)nnc32)cc1`
Reply text: 10
